Here, each record is paired with measured log10 IC50 data.
- Test Target: Ectonucleotide pyrophosphatase/phosphodiesterase family member 3 (Homo sapiens, UniProt O14638)
- Sequence (O14638 whole entry): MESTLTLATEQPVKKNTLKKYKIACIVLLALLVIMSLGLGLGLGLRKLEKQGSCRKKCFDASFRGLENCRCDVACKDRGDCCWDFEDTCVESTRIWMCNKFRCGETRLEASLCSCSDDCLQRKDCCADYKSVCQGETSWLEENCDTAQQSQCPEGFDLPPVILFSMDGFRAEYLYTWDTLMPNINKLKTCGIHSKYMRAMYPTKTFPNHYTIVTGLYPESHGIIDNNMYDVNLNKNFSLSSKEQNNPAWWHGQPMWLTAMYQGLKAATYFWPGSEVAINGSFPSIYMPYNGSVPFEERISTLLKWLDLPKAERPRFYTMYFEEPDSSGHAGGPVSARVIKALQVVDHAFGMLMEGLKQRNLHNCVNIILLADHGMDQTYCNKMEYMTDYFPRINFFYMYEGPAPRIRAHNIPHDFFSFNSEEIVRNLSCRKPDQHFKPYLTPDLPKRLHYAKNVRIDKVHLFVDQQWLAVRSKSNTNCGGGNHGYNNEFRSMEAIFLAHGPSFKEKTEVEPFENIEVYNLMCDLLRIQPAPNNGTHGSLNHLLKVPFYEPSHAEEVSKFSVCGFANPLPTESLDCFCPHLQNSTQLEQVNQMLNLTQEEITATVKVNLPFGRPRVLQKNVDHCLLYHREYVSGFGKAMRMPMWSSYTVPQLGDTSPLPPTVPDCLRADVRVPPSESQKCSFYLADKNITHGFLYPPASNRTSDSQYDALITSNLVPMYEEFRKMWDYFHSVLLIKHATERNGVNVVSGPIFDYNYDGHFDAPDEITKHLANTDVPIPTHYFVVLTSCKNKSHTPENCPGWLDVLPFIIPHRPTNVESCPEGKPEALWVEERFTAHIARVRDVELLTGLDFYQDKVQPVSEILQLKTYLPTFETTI
- Assay Text: Inhibition of human NPP3 transfected in COS7 cells using pNP-TMP as substrate incubated for 35 mins
- Type: cell-based
Hey, these are logged values: log10 of IC50, nM being the unit before logging.

Study these solved cases before continuing.
>>> test_result("CN(C)c1ccnc2c1ccn2C(=O)NS(=O)(=O)c1ccccc1")
2.74
>>> test_result("Cc1ccc(S(=O)(=O)NC(=O)n2ccc3cc(Br)cnc32)cc1")
2.77
>>> test_result("O=C(NS(=O)(=O)c1cccc([N+](=O)[O-])c1)n1ccc2cc(Br)cnc21")
3.33
>>> test_result("O=C(NS(=O)(=O)c1ccccc1)n1ccc2c(Cl)ccnc21")
4.42
>>> test_result("O=C(NS(=O)(=O)c1ccc(Cl)cc1)n1ccc2cccnc21")
2.94

`O=C(NS(=O)(=O)c1ccc2ccccc2c1)n1ccc2c(Cl)ccnc21` yielded log10 IC50 of 3.12

`O=C(NS(=O)(=O)c1ccc2ccccc2c1)n1ccc2cc(Br)cnc21` yielded log10 IC50 of 4.40

`Cc1ccc(S(=O)(=O)NC(=O)n2ccc3cccnc32)cc1` yielded log10 IC50 of 3.57

`O=C(NS(=O)(=O)c1ccccc1)n1ccc2cc(Br)cnc21` yielded log10 IC50 of 3.30

`O=C(NS(=O)(=O)c1cccc([N+](=O)[O-])c1)n1ccc2cccnc21` yielded log10 IC50 of 3.07

###

- Test Target: Ectonucleotide pyrophosphatase/phosphodiesterase family member 1 (Homo sapiens, UniProt P22413)
- Assay Text: Inhibition of NPP1 (unknown origin) transfected in COS7 cells using pNP-TMP as substrate incubated for 35 mins by spectrophotometric method
- Type: cell-based
Attribute Measured: IC50

`COc1ccc(-c2nn(-c3cccc(NS(=O)(=O)c4ccc(C)cc4)c3)cc2-c2ccncc2)cc1Cl` yielded IC50 of 180 nM

###

- Test Target: Ectonucleotide pyrophosphatase/phosphodiesterase family member 1 (Homo sapiens, UniProt P22413)
- Sequence (P22413 whole entry): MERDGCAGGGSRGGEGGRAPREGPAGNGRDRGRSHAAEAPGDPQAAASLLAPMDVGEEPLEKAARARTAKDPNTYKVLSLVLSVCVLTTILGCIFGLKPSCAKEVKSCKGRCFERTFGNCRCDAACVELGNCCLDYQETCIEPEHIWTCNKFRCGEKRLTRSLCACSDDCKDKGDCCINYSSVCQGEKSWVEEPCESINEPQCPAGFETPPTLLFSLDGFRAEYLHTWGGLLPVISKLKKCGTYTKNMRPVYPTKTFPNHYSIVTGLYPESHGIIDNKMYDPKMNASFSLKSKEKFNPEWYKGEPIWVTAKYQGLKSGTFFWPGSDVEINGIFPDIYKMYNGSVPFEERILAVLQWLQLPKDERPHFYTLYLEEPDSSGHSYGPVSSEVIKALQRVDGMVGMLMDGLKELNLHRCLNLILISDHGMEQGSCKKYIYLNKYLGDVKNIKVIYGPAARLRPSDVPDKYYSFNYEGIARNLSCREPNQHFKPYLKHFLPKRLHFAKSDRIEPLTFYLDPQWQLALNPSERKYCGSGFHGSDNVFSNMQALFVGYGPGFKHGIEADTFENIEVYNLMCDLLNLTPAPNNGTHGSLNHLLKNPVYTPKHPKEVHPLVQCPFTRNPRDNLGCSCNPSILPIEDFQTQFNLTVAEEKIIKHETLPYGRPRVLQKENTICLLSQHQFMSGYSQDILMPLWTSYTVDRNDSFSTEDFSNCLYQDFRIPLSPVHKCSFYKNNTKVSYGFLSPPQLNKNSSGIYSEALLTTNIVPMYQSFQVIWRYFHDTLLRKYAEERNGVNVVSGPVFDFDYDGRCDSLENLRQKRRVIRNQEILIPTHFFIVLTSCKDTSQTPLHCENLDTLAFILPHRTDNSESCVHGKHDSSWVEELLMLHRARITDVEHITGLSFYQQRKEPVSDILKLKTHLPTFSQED
- Assay Text: Inhibition of human NPP1 transfected in COS7 cells using pNP-TMP as substrate incubated for 35 mins
- Assay type: cell-based
Please use the following IC50 ranges when assigning a class: low (below 2 µM), moderate (2 µM to below 4 µM), high (4 µM or more)

Here's what some known entries look like.
>>> assigned_class("O=C(NS(=O)(=O)c1ccc2ccccc2c1)n1ccc2cc(Br)cnc21")
"high"
>>> assigned_class("O=C(NS(=O)(=O)c1cccc([N+](=O)[O-])c1)n1ccc2cc(Br)cnc21")
"low"
>>> assigned_class("Cc1ccc(S(=O)(=O)NC(=O)n2ccc3cc(Br)cnc32)cc1")
"low"

Asked: Which class holds `CN(C)c1ccnc2c1ccn2C(=O)NS(=O)(=O)c1ccccc1` ?
Given back: moderate

Asked: Which class holds `O=C(NS(=O)(=O)c1ccccc1)n1ccc2cccnc21` ?
Given back: high

Asked: Which class holds `O=C(NS(=O)(=O)c1ccccc1)n1ccc2cc(Br)cnc21` ?
Given back: high

Asked: Which class holds `O=C(NS(=O)(=O)c1ccc2ccccc2c1)n1ccc2c(Cl)ccnc21` ?
Given back: moderate
